# method.description: enhancers of STAT3 transcriptional signaling – U3A cells, luciferase, luminescence, MLSCN library, primary screen (AID 871);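 note: 0% = background luminescence of wells with medium and substrate only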
# conditions.used: IL-6 STAT3-luciferase reporter, at 5.6 µM, hits give high values, 100% = signal with IL-6 EC80 alone
The campaign covered roughly 190,000 compounds. About 1,800 (0.95%) were called active. Shown is part of a subset that was picked to be rich in actives.
Provide the reported activation (% of control) of each item.
// note: answer is a bare numeric in %

Query string: Data request, read-out activation (% of control), for Cc1ccccc1NC(=O)CNc1ccccc1N1CCCCC1
Result string: 101

Query string: Data request, read-out activation (% of control), for Cc1ccc(NC(=O)c2sc3nc(N)c(C#N)cc3c2N)cc1
Result string: 100

Query string: Data request, read-out activation (% of control), for Cc1ccccc1OCCOc1ccc([N+](=O)[O-])cc1/C=N/n1cnnc1
Result string: 111

Query string: Data request, read-out activation (% of control), for N#Cc1ccccc1NC(=O)COc1c(Br)cc(Br)c2cccnc12
Result string: 151

Query string: Data request, read-out activation (% of control), for COc1cc(-c2nnn(CC(=O)NCc3ccccc3)n2)cc(OC)c1OC
Result string: 99.5

Query string: Data request, read-out activation (% of control), for CCNC(=O)COC(=O)CCNC(=O)c1cccc(C)c1
Result string: 102

Query string: Data request, read-out activation (% of control), for O=C(CN1CCc2ccccc21)NC(c1ccccc1)c1ccccc1
Result string: 103

Query string: Data request, read-out activation (% of control), for Oc1oc(-c2ccccc2Br)nc1/C=N/c1ccccn1
Result string: 107

Query string: Data request, read-out activation (% of control), for COC(=O)c1[nH]c2ccccc2c1NC(=O)CN1CCCc2ccccc21
Result string: 154

Query string: Data request, read-out activation (% of control), for CCOC(=O)c1[nH]c2ccc(OC)cc2c1NC(=O)CCN1CCN(Cc2ccccc2)CC1
Result string: 104

Query string: Data request, read-out activation (% of control), for N#Cc1ccc(C(=O)Nc2cccc3cccnc23)c(F)c1
Result string: 87.4

====

# method.description: enhancers of STAT3 transcriptional signaling – U3A cells, luciferase, luminescence, MLSCN library, primary screen (AID 871);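 note: 0% = background luminescence of wells with medium and substrate only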
# conditions.used: IL-6 STAT3-luciferase reporter, at 5.6 µM, hits give high values, 100% = signal with IL-6 EC80 alone
The whole screen tested about 190,000 compounds, of which about 1,800 (0.95%) were called active. This excerpt belongs to a sample that is enriched for actives.
property: activation (% of control) (%)
// note: answer is a bare numeric in %

Query string: Data request, read-out activation (% of control), for CCc1nnc(NC(=O)[C@@H](NC(=O)c2cccc(C)c2)C(C)C)s1
Result string: 101

Query string: Data request, read-out activation (% of control), for COc1ccc(C2C(C(C)=O)=C(O)C(=O)N2CCc2c[nH]c3ccccc23)cc1 (stereo unspecified)
Result string: 108

Query string: Data request, read-out activation (% of control), for O=C(/C(=C/c1cccc(Cl)c1)c1nc2ccccc2[nH]1)c1ccccc1
Result string: 98.5

Query string: Data request, read-out activation (% of control), for Cc1cccc(C(=O)Nc2nnc(Cc3c[nH]c4ccccc34)s2)c1
Result string: 157

Query string: Data request, read-out activation (% of control), for Nc1ccc(OCC(O)C[n+]2ccc(CCS(=O)(=O)[O-])cc2)cc1 (stereo unspecified)
Result string: 101

Query string: Data request, read-out activation (% of control), for CC(C)CNC(=O)/C=C/C(=O)O
Result string: 103

Query string: Data request, read-out activation (% of control), for c1ccc2[nH]c(-c3nc4ccccc4[nH]3)nc2c1
Result string: 63.1

Query string: Data request, read-out activation (% of control), for Cc1nc2ccccc2cc1O
Result string: 163

Query string: Data request, read-out activation (% of control), for Cc1nc2ccccc2cc1OCc1ccc(F)cc1
Result string: 44.1

Query string: Data request, read-out activation (% of control), for COc1ccc(C2C(C(C)=O)=C(O)C(=O)N2c2nccs2)cc1 (stereo unspecified)
Result string: 134

Query string: Data request, read-out activation (% of control), for COc1ccc(C2C(C(C)=O)=C(O)C(=O)N2Cc2cccnc2)cc1 (stereo unspecified)
Result string: 100

meta.source: PubChem BioAssay AID871
